- assay-comment: pH of the salt solutions
- Type: physicochemical
- assay-setup: aqueous solution of the salt, Table 5
assay-readout: pH
Could you keep your reply to the number by itself?

Consider the reported pH for these compounds:
{"structure-as-smiles": "CC(=O)[C@H]1CC[C@H]2[C@@H]3CC[C@H]4C[C@H](O)CC[C@]4(C)[C@H]3[C@@H](OC(=O)CCCN3CCC(C)CC3)C[C@]12C", "measurement": 3.72}
{"structure-as-smiles": "CC(=O)[C@H]1CC[C@H]2[C@@H]3CC[C@H]4C[C@H](O)CC[C@]4(C)[C@H]3[C@@H](OC(=O)CN(C)C(C)(C)C)C[C@]12C", "measurement": 3.12}

Answer with reported pH of CC(=O)[C@H]1CC[C@H]2[C@@H]3CC[C@H]4C[C@H](O)CC[C@]4(C)[C@H]3[C@@H](OC(=O)CNC3CCCC3)C[C@]12C
3.62

Each recorded value in this set is attributed to patent US4192871A.
